# STUDY TARGET: NLuc-CAMKK2 (kinase domain) in HEK293 cells (Homo sapiens, UniProt Q96RR4)
# Construct: this assay utilizes a nanoluciferase (NL) fused to the kinase domain of CAMKK2
# MEASUREMENT PROTOCOL: CAMKK2 NanoBRET in-cell target engagement assay
# CONDITIONS: HEK293 cells transiently transfected with NLuc-CAMKK2
QUANTITY NAME: IC50 (nM)
Please state the figure in nM; there is no need to write the unit.

Quick one: IC50 of `Cc1cccc(-c2cnc3occ(-c4ccc(C(=O)O)c(C5CCCC5)c4)c3c2)c1` ?
270

----------
# STUDY TARGET: CAMKK2 (Homo sapiens)
# MEASUREMENT PROTOCOL: CAMKK2 enzyme assay (radiolabeled phosphate transfer from [γ-32P]-ATP to CaMKKtide)
# Format: biochemical
# Set-up: purified recombinant CAMKK2 (100 pM) was incubated in assay buffer
# CONDITIONS: 200 μM ATP, 100 pM CAMKK2; n = 1
QUANTITY NAME: pIC50
# pIC50 = -log10(concentration in molar units)

Give recorded pIC50 with CAMKK2 (Homo sapiens) for the following compound: O=C(O)c1ccc(-c2coc3ncc(-c4ccccc4)cc23)cc1Cl [Compound 7]
4.57

----------
# STUDY TARGET: CAMKK2 (Homo sapiens, UniProt Q96RR4)
# MEASUREMENT PROTOCOL: CAMKK2 enzyme assay (radiolabeled phosphate transfer from [γ-32P]-ATP to CaMKKtide)
# Assay type: biochemical
# Parameters: purified recombinant CAMKK2 (100 pM) was incubated in assay buffer
# CONDITIONS: 200 μM ATP, 100 pM CAMKK2
QUANTITY NAME: pIC50
Bear in mind: pIC50 is minus log10 of a mol/L concentration; give just that figure.

May I ask what pIC50 has been recorded for `Cc1cccc(-c2cnc3occ(-c4ccc(C(=O)O)c(C5CCCC5)c4)c3c2)c1` ?
7.52
